System: 313798-341-R-J2-PDC spheroids, viability;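 also: spheroids exposed to compounds for seven days; 100% = DMSO vehicle control viability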
Experiment: Anticancer human tumor 313798-341-R-J2-PDC patient-derived cervical squamous cell carcinoma cell line growth inhibition [PI3K]
Conditions: second compound 10 µM; first compound 0.1 µM; hits give low values; spheroids with HUVEC and MSC
Observation type: viability, T/C

// query Entry C#Cc1c(F)ccc2cc(O)cc(-c3ncc4c(N5CC6CCC(C5)N6)nc(OCC56CCCN5CC(F)C6)nc4c3F)c12 (stereo not given) + Cc1nc(NC(=O)N2CCCC2C(N)=O)sc1-c1ccnc(C(C)(C)C(F)(F)F)c1 needs its viability, T/C filled in; supply it.
// result 39.8%

// query Provide only the value of recorded viability, T/C for C=CC(=O)N1CCN(c2nc(=O)n(-c3c(C)ccnc3C(C)C)c3nc(-c4c(O)cccc4F)c(F)cc23)C(C)C1 (stereo not given) + CC(Nc1ncnc2nc[nH]c12)c1cc2cccc(Cl)c2c(=O)n1-c1ccccc1
// result 85.2%

// query State, in one line, measured viability, T/C of C#Cc1c(F)ccc2cc(O)cc(-c3ncc4c(N5CC6CCC(C5)N6)nc(OCC56CCCN5CC(F)C6)nc4c3F)c12 (stereo not given) + CC(Nc1ncnc2nc[nH]c12)c1cc2cccc(Cl)c2c(=O)n1-c1ccccc1
// result 83.9%

// query Entry Cn1nccc1Nc1nccc(-c2ccn(C(CO)c3ccc(Cl)c(F)c3)c(=O)c2)n1 (stereo not given) + CC(Nc1ncnc2nc[nH]c12)c1cc2cccc(Cl)c2c(=O)n1-c1ccccc1 needs its viability, T/C filled in; supply it.
// result 75.3%

// query Give me measured viability, T/C, please, for this compound: Cn1ncc(Cl)c1-c1cc(C(=O)NC(CN)Cc2cccc(F)c2)sc1Cl (stereo not given) + Cc1nc(NC(=O)N2CCCC2C(N)=O)sc1-c1ccnc(C(C)(C)C(F)(F)F)c1
// result 32.6%

Reference for the values: PubChem BioAssay AID1963982
